I'd appreciate it if you could supply composite z-score values for the items below.
# Target: Albumin (Bos taurus)
# Assay Notes: compounds binding labelled BSA control protein – biochemical, small-molecule microarray, Alexa647 label, 635/667 nm fluorescence, artefact control for SMM control protein annotation, profiling panel (AID 1118);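 further: score merges 667 nm emission intensity and signal-to-noise per printed compound spot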
# Conditions: BSA-A647 binding, fluorescence 635 nm, higher = more signal

### Prompt Entry COCCOC(=O)N1C(=O)[C@@]2(c3cc(C#CCC(C(=O)OC)C(=O)OC)ccc31)[C@H](c1ccc(OCCO)cc1)N1[C@H](c3ccccc3)[C@H](c3ccccc3)OC(=O)[C@H]1[C@@H]2C(N)=O has what composite z-score?
### Response 0.84

### Prompt Entry C=C[C@@H](O)[C@H]1CC(c2ccccc2)=NO1 has what composite z-score?
### Response -0.596

### Prompt Entry CCCC[C@H]1OB(O)C[C@H]2C1=C(COc1ccccc1)Cn1c(=O)n(-c3ccccc3)c(=O)n12 has what composite z-score?
### Response 0.196

### Prompt Entry CN(C)CCCNC(=O)[C@@]1(Cc2ccccc2I)c2ccccc2C(=O)N(Cc2ccccc2Cl)[C@H]1c1ccc(CO)cc1 has what composite z-score?
### Response 0.827

### Prompt Entry [N-]=[N+]=Nc1ccccc1[C@H]1OC(c2ccc(OCCCO)cc2)=N[C@@]1(Cc1ccccc1)C(=O)NCc1ccccc1 has what composite z-score?
### Response 0.713

### Prompt Entry CC(C)c1ccc(NN2C(C(O)c3cccs3)C=CC3C(=O)N(c4ccccc4)C(=O)C32)cc1 (configuration not stated) has what composite z-score?
### Response 0.772

### Prompt Entry COC(=O)C(CC#Cc1ccc2c(c1)[C@]1(C(=O)N2)[C@H](c2ccc(O)cc2)N2[C@H](c3ccccc3)[C@H](c3ccccc3)OC(=O)[C@H]2[C@@H]1C(N)=O)C(=O)OC has what composite z-score?
### Response -0.999

* * *

# Assay Notes: probe aLAP1 signal on lysate-treated microarray – cell lysate, small-molecule microarray, COS7 lysate, primary screen (AID 1124);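 further: lysate comes from COS7 cells expressing LAP1 and is applied at 0.3 µg/mL; score merges spot fluorescence near 667 nm with signal-to-noise over triplicate slides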
# Conditions: probe aLAP1, fluorescence, higher = more signal
I'd appreciate it if you could supply composite z-score values for the items below.
Please give only the number in your answer, with no unit.

### Prompt Entry [N-]=[N+]=NCc1ccccc1C[C@@]1(C(=O)NCCN2CCOCC2)N=C(c2ccc(OCCCO)cc2)O[C@@H]1c1ccccc1CN=[N+]=[N-] has what composite z-score?
### Response 0.0232

### Prompt Entry C=CCOc1ccc([C@@H]2CC=C(C(=O)OCC)[C@H](c3cccc(Br)c3)N2S(=O)(=O)c2ccc(C)cc2)cc1 has what composite z-score?
### Response 0.11

### Prompt Entry COCCCNC(=O)[C@@]1(Cc2ccccc2N=[N+]=[N-])N=C(c2ccc(OCCCO)cc2)O[C@H]1c1ccccc1CN=[N+]=[N-] has what composite z-score?
### Response 0.565

### Prompt Entry O=C1C[C@@](C(=O)NCc2ccccc2)(c2ccc([N+](=O)[O-])cc2)[C@@H](c2ccc(CO)cc2I)N1C1CCCCC1 has what composite z-score?
### Response -0.0355

### Prompt Entry CCOc1cc(C(O)C2C=CC3C(=O)NC(=O)C3N2Nc2ccccn2)ccc1O (configuration not stated) has what composite z-score?
### Response 0.241

### Prompt Entry CC(C)NC(=O)[C@@H]1c2ccccc2C(=O)N(Cc2cc(C(F)(F)F)cc(C(F)(F)F)c2)[C@H]1c1ccc(CO)cc1 has what composite z-score?
### Response 0.706

### Prompt Entry CCOC(=O)C1=CC[C@@H](c2ccc(N(CC)CC)cc2)N(S(=O)(=O)c2ccc(C)cc2)[C@H]1c1ccc([N+](=O)[O-])cc1 has what composite z-score?
### Response 0.769
